- target.or.test.system: LNX1_1, Q8TBB1
- Sequence (Q8TBB1 261-371): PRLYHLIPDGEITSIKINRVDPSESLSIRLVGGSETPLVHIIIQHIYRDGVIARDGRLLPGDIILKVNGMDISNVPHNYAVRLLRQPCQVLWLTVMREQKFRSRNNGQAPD
- test.details: holdup assay
- Parameters: key: below the threshold = too weak to quantify, mostly under pKd 3.1 to 4
- test.settings: plain residues with an end cap or a label only (N-terminal biotin on a linker: ado-ado)

{"binder": "KAEEKPPSKV [SCN4B, Q8IWT1]", "pKd": 3.49}
{"binder": "GTMFLRETSL [GUCY1A2, P33402]", "pKd": 3.73}
{"binder": "TKDKVQETQI [LRRC4, Q9HBW1]", "pKd": 3.99}
{"binder": "DYSNLRETDI [ADRA1D, P25100]", "pKd": 4.44}
{"binder": "THHRKIHTRV [ZNF599, Q96NL3]", "pKd": 4.06}
{"binder": "RGKNRRQSIF [CDK18, Q07002]", "pKd": 3.95}
{"binder": "KLQNPNQSVV [TYRP1, P17643]", "pKd": 3.86}
{"binder": "HYPASPDSWV [CTNND2, Q9UQB3]", "pKd": 4.12}
{"binder": "ADEMICITTL [CACNA1D, Q01668]", "pKd": 4.48}

Attribution: paper PMC9482650
